condition notes: 321.66 K; 101.33 kPa; Liquid; Vibrating tube method
quantity name: mass density (kg/m3)

1) CC(=O)[O-].C[NH2+]CCO [N-methyl-2-hydroxyethylammonium acetate]    1086.55
2) CCC(=O)[O-].C[NH2+]CCO [2-hydroxy-N-methylethanaminium propionate]    1055.83
3) CCCCC(=O)[O-].C[NH2+]CCO [2-hydroxy-N-methylethanaminium pentanoate]    1000.28
4) CC(C)C(=O)[O-].C[NH2+]CCO [2-hydroxy-N-methylethanaminium isobutyrate]    1028.03
5) CCCC(=O)[O-].C[NH2+]CCO [N-methyl-2-hydroxyethylammonium butanoate]    1023.3
6) C[NH2+]CCO.O=C[O-] [2-hydroxy-N-methylethanaminium formate]    1115.16

* * *

condition notes: 312.16 K; 101.33 kPa; Liquid; Vibrating tube method
Catalogue of mass density values
quantity name: mass density (kg/m3)

1. CCC(=O)[O-].C[NH2+]CCO [2-hydroxy-N-methylethanaminium propionate]    1062.16
2. CCCC(=O)[O-].C[NH2+]CCO [N-methyl-2-hydroxyethylammonium butanoate]    1029.83
3. CC(=O)[O-].C[NH2+]CCO [N-methyl-2-hydroxyethylammonium acetate]    1092.4
4. C[NH2+]CCO.O=C[O-] [2-hydroxy-N-methylethanaminium formate]    1120.43
5. CC(C)C(=O)[O-].C[NH2+]CCO [2-hydroxy-N-methylethanaminium isobutyrate]    1034.32
6. CCCCC(=O)[O-].C[NH2+]CCO [2-hydroxy-N-methylethanaminium pentanoate]    1006.8

* * *

Catalogue of speed of sound values
condition notes: 332.66 K; 101.33 kPa; Liquid; Pulse-echo method
quantity name: speed of sound (m/s)

1) CCCCC(=O)[O-].C[NH2+]CCO [2-hydroxy-N-methylethanaminium pentanoate]    1442.4
2) CC(C)C(=O)[O-].C[NH2+]CCO [2-hydroxy-N-methylethanaminium isobutyrate]    1513.4
3) CCC(=O)[O-].C[NH2+]CCO [2-hydroxy-N-methylethanaminium propionate]    1587.3
4) CCCC(=O)[O-].C[NH2+]CCO [N-methyl-2-hydroxyethylammonium butanoate]    1506.4
5) C[NH2+]CCO.O=C[O-] [2-hydroxy-N-methylethanaminium formate]    1748.5

* * *

condition notes: 328.41 K; 101.33 kPa; Liquid; Pulse-echo method
quantity name: speed of sound (m/s)

1) CCC(=O)[O-].C[NH2+]CCO [2-hydroxy-N-methylethanaminium propionate]    1600.2
2) CCCCC(=O)[O-].C[NH2+]CCO [2-hydroxy-N-methylethanaminium pentanoate]    1455.5
3) CCCC(=O)[O-].C[NH2+]CCO [N-methyl-2-hydroxyethylammonium butanoate]    1519.8
4) CC(C)C(=O)[O-].C[NH2+]CCO [2-hydroxy-N-methylethanaminium isobutyrate]    1525.7
5) C[NH2+]CCO.O=C[O-] [2-hydroxy-N-methylethanaminium formate]    1756.5

* * *

condition notes: 328.9 K; 101.33 kPa; Liquid; Vibrating tube method
Catalogue of mass density values
quantity name: mass density (kg/m3)

1. CCC(=O)[O-].C[NH2+]CCO [2-hydroxy-N-methylethanaminium propionate]    1050.93
2. CC(C)C(=O)[O-].C[NH2+]CCO [2-hydroxy-N-methylethanaminium isobutyrate]    1023.16
3. CCCCC(=O)[O-].C[NH2+]CCO [2-hydroxy-N-methylethanaminium pentanoate]    995.229
4. C[NH2+]CCO.O=C[O-] [2-hydroxy-N-methylethanaminium formate]    1111.19
5. CC(=O)[O-].C[NH2+]CCO [N-methyl-2-hydroxyethylammonium acetate]    1082.03
6. CCCC(=O)[O-].C[NH2+]CCO [N-methyl-2-hydroxyethylammonium butanoate]    1018.25

Reference source: the NIST ThermoML archive (doi:10.1021/je900550v)
